For each record, write down the corresponding pEC50.
# Assayed Target: T1, CD228 on A375 and A2058 cells (human, UniProt P08582 20-709)
# T1 construct: whole, on cells; GPI-anchored cell surface protein; also called CD228 on A375 cells; CD228 on A2058 cells
# T1 sequence (looked up): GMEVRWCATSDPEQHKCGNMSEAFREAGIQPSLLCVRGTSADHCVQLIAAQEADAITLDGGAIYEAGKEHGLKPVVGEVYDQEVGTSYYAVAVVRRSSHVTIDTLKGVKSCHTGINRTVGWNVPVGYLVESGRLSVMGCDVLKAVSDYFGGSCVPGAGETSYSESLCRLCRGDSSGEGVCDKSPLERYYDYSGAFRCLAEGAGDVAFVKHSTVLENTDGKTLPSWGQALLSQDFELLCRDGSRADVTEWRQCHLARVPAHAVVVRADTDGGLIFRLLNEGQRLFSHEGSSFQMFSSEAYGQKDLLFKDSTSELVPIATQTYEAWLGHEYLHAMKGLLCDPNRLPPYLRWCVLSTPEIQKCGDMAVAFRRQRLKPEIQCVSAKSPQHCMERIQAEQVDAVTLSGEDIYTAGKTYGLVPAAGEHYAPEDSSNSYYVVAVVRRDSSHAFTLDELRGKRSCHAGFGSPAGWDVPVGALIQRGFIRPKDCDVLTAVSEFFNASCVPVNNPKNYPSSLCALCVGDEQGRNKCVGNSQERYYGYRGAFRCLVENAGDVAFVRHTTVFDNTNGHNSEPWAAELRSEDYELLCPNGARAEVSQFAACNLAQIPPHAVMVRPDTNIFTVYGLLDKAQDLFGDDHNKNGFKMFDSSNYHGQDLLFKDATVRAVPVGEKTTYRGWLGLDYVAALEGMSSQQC
# Experiment Summary: flow cytometry saturation binding on A2058 cells (~40K receptors), neutral pH
One number for each entry, as −log10 of the molar value.

Reference set (4 entries):
# Binder, pEC50
data = [
    ("hL49_34_Ala (antibody, V domains shown, hL49 variant with the light chain CDR-L1 histidine 34 changed to alanine; also called hL49_H34A) VH: QVQLQESGPGLVKPSETLSLTCTVSGDSITSGYWNWIRQPPGKGLEYIGYISDSGITYYNPSLKSRVTISRDTSKNQYSLKLSSVTAADTAVYYCARRTLATYYAMDYWGQGTLVTVSS VL: DFVMTQSPLSLPVTLGQPASISCRASQSLVHSDGNTYLAWYQQRPGQSPRLLIYRVSNRFSGVPDRFSGSGSGTDFTLKISRVEAEDVGVYYCSQSTHVPPTFGQGTKLEIK", 8.89),
    ("hL49_34_Tyr (antibody, V domains shown, hL49 variant with the light chain CDR-L1 histidine 34 changed to tyrosine; also called hL49_H34Y; hL49_Tyr) VH: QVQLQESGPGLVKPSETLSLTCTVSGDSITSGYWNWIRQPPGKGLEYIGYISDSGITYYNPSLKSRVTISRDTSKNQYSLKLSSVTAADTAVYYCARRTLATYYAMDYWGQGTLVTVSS VL: DFVMTQSPLSLPVTLGQPASISCRASQSLVHSDGNTYLYWYQQRPGQSPRLLIYRVSNRFSGVPDRFSGSGSGTDFTLKISRVEAEDVGVYYCSQSTHVPPTFGQGTKLEIK", 7.95),
    ("hL49_3X_Gln (antibody, V domains shown, hL49 triple mutant: all three light chain CDR histidines changed to glutamine; also called 3X-Gin) VH: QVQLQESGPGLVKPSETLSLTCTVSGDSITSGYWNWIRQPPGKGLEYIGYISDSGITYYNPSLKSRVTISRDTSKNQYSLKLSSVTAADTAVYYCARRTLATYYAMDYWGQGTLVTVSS VL: DFVMTQSPLSLPVTLGQPASISCRASQSLVQSDGNTYLQWYQQRPGQSPRLLIYRVSNRFSGVPDRFSGSGSGTDFTLKISRVEAEDVGVYYCSQSTQVPPTFGQGTKLEIK", 8.89),
    ("hL49 (antibody, V domains shown, Humanized antibody; Only variable domains are tied to it; also called hL49 HALC; hL49 WT) VH: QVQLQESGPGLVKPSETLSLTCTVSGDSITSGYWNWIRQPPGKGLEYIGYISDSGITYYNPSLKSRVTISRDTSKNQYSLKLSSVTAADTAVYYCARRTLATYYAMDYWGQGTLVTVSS VL: DFVMTQSPLSLPVTLGQPASISCRASQSLVHSDGNTYLHWYQQRPGQSPRLLIYRVSNRFSGVPDRFSGSGSGTDFTLKISRVEAEDVGVYYCSQSTHVPPTFGQGTKLEIK", 9.22),
]

Switching to the query record.
Data request: Read the entry hL49_27D_Tyr (antibody, V domains shown, hL49 variant with the light chain CDR-L1 histidine 27D changed to tyrosine) VH: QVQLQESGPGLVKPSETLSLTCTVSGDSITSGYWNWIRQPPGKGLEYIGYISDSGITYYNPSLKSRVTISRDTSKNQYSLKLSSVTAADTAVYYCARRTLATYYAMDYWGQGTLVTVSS VL: DFVMTQSPLSLPVTLGQPASISCRASQSLVYSDGNTYLHWYQQRPGQSPRLLIYRVSNRFSGVPDRFSGSGSGTDFTLKISRVEAEDVGVYYCSQSTHVPPTFGQGTKLEIK and write its reported pEC50.
Data returned: 9.15
